src = patent US20250340557A1

Each record here notes measured IC50.
TGT: human mPGES-1 (Homo sapiens, UniProt O14684)
Construct: made in house; host or cells: COS-1 cells (transient transfection; microsomal fraction used as enzyme)
Sequence (O14684 whole entry): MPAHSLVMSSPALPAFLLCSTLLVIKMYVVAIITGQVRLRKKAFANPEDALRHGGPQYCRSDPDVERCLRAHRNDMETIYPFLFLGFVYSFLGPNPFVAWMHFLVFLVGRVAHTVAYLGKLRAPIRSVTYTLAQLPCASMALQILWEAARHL
EXPERIMENT: Test for mPGES-1 inhibitory activity (microsomal enzyme, PGE2 EIA)
Assay type: biochemical
TEST SETTINGS: microsomes of COS-1 cells transfected with human mPGES-1 cDNA; PGH2 1 μM; 4° C., 4 minutes; PGE2 by EIA; read-out: h mPGES1 IC50

# count of solved cases: 8
Qu. Tell me reported IC50 for CCc1cc(=O)[nH]c(-c2c(C(F)(F)F)ccc(CNC(=O)[C@H]3C[C@H](OCc4cccc(C(F)(F)F)c4)C3)c2F)n1 [Example 199] , tested with human mPGES-1 (Homo sapiens, UniProt O14684).
Ans. 1.1 nM

Qu. Tell me reported IC50 for CCc1nc(-c2c(C(F)(F)F)ccc(CNC(=O)[C@H]3C[C@H](OCc4ccc(F)cc4Cl)C3)c2F)[nH]c(=O)c1F [Example 241] , tested with human mPGES-1 (Homo sapiens, UniProt O14684).
Ans. < 1 nM

Qu. Tell me reported IC50 for CCc1nc(-c2c(C(F)(F)F)ccc(CNC(=O)[C@H]3C[C@H](OCc4cc(F)cc(F)c4)C3)c2F)[nH]c(=O)c1F [Example 238] , tested with human mPGES-1 (Homo sapiens, UniProt O14684).
Ans. < 1 nM

Qu. Tell me reported IC50 for Cc1nc(-c2c(C(F)(F)F)ccc(CNC(=O)[C@H]3C[C@H](OCc4ccccc4C(F)(F)F)C3)c2F)[nH]c(=O)c1F [Example 215] , tested with human mPGES-1 (Homo sapiens, UniProt O14684).
Ans. 6.9 nM

Qu. Tell me reported IC50 for Cc1nc(-c2c(C(F)(F)F)ccc(CNC(=O)[C@H]3C[C@H](OCc4ccc(Cl)cc4)C3)c2F)[nH]c(=O)c1F [Example 214] , tested with human mPGES-1 (Homo sapiens, UniProt O14684).
Ans. 8.6 nM

Qu. Tell me reported IC50 for CCc1nc(-c2c(C(F)(F)F)ccc(CNC(=O)[C@H]3C[C@H](OCc4ccc(F)c(F)c4)C3)c2F)[nH]c(=O)c1F [Example 237] , tested with human mPGES-1 (Homo sapiens, UniProt O14684).
Ans. < 1 nM

Qu. Tell me reported IC50 for O=c1cc(C(F)(F)F)nc(-c2c(C(F)(F)F)ccc(CNC(=O)[C@H]3C[C@H](OCc4cc(F)cc(F)c4)C3)c2F)[nH]1 [Example 151] , tested with human mPGES-1 (Homo sapiens, UniProt O14684).
Ans. < 1 nM

Qu. Tell me reported IC50 for CCc1cc(=O)[nH]c(-c2c(C(F)(F)F)ccc(CNC(=O)[C@H]3C[C@H](OCc4cccc(Cl)c4)C3)c2F)n1 [Example 196] , tested with human mPGES-1 (Homo sapiens, UniProt O14684).
Ans. < 1 nM

More entries:
Qu. Tell me reported IC50 for Cc1nc(-c2c(C(F)(F)F)ccc(CNC(=O)[C@H]3C[C@H](OCc4cccc(Cl)c4)C3)c2F)[nH]c(=O)c1C [Example 246] , tested with human mPGES-1 (Homo sapiens, UniProt O14684).
Ans. < 1 nM

Qu. Tell me reported IC50 for O=c1cc(C(F)F)nc(-c2c(C(F)(F)F)ccc(CNC(=O)[C@H]3C[C@H](OCc4cccc(F)c4F)C3)c2F)[nH]1 [Example 172] , tested with human mPGES-1 (Homo sapiens, UniProt O14684).
Ans. < 1 nM

Qu. Tell me reported IC50 for CCc1nc(-c2c(C(F)(F)F)ccc(CNC(=O)[C@H]3C[C@H](OCc4ccc(Cl)cc4)C3)c2F)[nH]c(=O)c1F [Example 231] , tested with human mPGES-1 (Homo sapiens, UniProt O14684).
Ans. < 1 nM

Qu. Tell me reported IC50 for Cc1cc(=O)[nH]c(-c2c(C(F)(F)F)ccc(CNC(=O)[C@H]3C[C@H](OCc4ccc(F)c(F)c4)C3)c2F)n1 [Example 186] , tested with human mPGES-1 (Homo sapiens, UniProt O14684).
Ans. 3.2 nM

Qu. Tell me reported IC50 for Cc1cc(=O)[nH]c(-c2c(C(F)(F)F)ccc(CNC(=O)[C@H]3C[C@H](OCc4cc(F)cc(Cl)c4)C3)c2F)n1 [Example 194] , tested with human mPGES-1 (Homo sapiens, UniProt O14684).
Ans. 3.6 nM
